# Substrate: tripropionin
# setupConditions: pH 7; 25 °C
reportedProperty: kcat (s⁻¹)
Only the number, expressed in s⁻¹, is required.

According to the records, this protein unnamed (protein) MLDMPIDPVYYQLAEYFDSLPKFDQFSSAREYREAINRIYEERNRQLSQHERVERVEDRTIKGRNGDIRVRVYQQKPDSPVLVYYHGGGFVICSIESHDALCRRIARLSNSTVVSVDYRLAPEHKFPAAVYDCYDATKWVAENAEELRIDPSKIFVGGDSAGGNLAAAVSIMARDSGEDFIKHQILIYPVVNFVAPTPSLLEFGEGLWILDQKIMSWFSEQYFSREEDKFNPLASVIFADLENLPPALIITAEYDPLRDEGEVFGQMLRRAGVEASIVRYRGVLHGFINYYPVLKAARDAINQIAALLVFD displays kcat of 110
